Quick list: Ratio IC50 per entry.
- Species on record: Homo sapiens
- METHOD DESCRIPTION: Selectivity ratio of IC50 for human integrin alphavbeta6 receptor to IC50 for human integrin alphavbeta8 receptor
The reply should be a number, written without any unit.

Answered examples (2):
MOLECULE: CC(C)C[C@@H]1NC(=O)[C@H](C)NC(=O)[C@H](CCCCN)N(C)C(=O)[C@H]2CCCN2C(=O)[C@H](CC(C)C)NC(=O)[C@H](CC(=O)O)NC(=O)CNC(=O)[C@H](CCCNC(=N)N)NC1=O
Ratio IC50: 1.4

MOLECULE: CC(C)C[C@@H]1NC(=O)[C@H](CC(=O)O)NC(=O)CNC(=O)[C@H](CCCNC(=N)N)NC(=O)[C@@H](C)NC(=O)[C@H](C)NC(=O)[C@@H]2CCCN2C(=O)[C@H]2CCCN2C1=O
Ratio IC50: 1.9

Next:
Form field: reported Ratio IC50 of "CCNC(=N)NCCC[C@@H]1NC(=O)[C@H](CC(C)C)NC(=O)CNC(=O)[C@@H]2CCCN2C(=O)[C@H]2CCCN2C(=O)[C@H](CC(C)C)NC(=O)[C@H](CC(=O)O)NC(=O)CNC1=O"
20
